Would you mind telling me the reported Activity of each entry?
Tested on: Avena fatua
Assay: Phytotoxicity against Avena fatua assessed as seed germination at 1 mM measured after 10 days sowing (reference value: 50 +/- 2.89%)
Type: functional
Just the number please, in %, no unit attached.

// recorded Activity for C=C(C(=O)O)[C@@H]1CC[C@H](C)[C@@H]2CCC(=O)[C@@]2(C)C1 : 38.3

Just so you know, measured Activity for C=C1C(=O)O[C@@H]2[C@H]1CC[C@H](C)[C@@H]1C=CC(=O)[C@@]21C came out at 26.7

Record C=C1C(=O)O[C@@H]2[C@H]1CC[C@H](C)C1=CCC(=O)[C@]12C . Reported Activity: 40

Reported Activity for C=C1C(=O)O[C@@H]2[C@H]1CC[C@H](C)[C@@]1(O)C=CC(=O)[C@@]21C was 30

Activity in this record for C=C1C(=O)O[C@@H]2[C@H]1CC[C@H](C)[C@@H]1CCC(=O)[C@@]21C : 26.7

----------
Test system: Avena fatua
Assay: Phytotoxicity against Avena fatua assessed as inhibition of shoot growth as shoot length at 1 mM (reference value: 11.2 +/- 0.35%)
Format: functional
Conditions: read-out: GI
Rule: MET for inhibition of growth at 1000 µM not less than 70%, NOT MET for anything less.

Incoming: Assess whether reported inhibition of growth at 1000 µM for C=C1C(=O)O[C@@H]2[C@H]1CC[C@H](C)C1=CCC(=O)[C@]12C [NEOAMBROSIN] sits at 70% or higher.
Outgoing: NOT MET

Incoming: Check the entry C=C1C(=O)O[C@@H]2[C@H]1CC[C@H](C)[C@@]1(O)C=CC(=O)[C@@]21C [HYMENIN] : does inhibition of growth at 1000 µM equal or exceed 70%?
Outgoing: NOT MET

Incoming: Say whether C=C1C(=O)O[C@@H]2[C@H]1CC[C@H](C)[C@@H]1CCC(=O)[C@@]21C [DAMSIN] shows inhibition of growth at 1000 µM of 70% or more.
Outgoing: NOT MET

Incoming: Reported inhibition of growth at 1000 µM reaches at least 70% for C=C1C(=O)O[C@@H]2[C@H]1CC[C@H](C)[C@@H]1C=CC(=O)[C@@]21C [AMBROSIN] ?
Outgoing: MET

Incoming: Hello, I need to know if C=C(C(=O)O)[C@@H]1CC[C@H](C)[C@@H]2CCC(=O)[C@@]2(C)C1 [DAMCINIC ACID] has measured inhibition of growth at 1000 µM not below 70%. Thanks!
Outgoing: NOT MET

----------
Tested on: Avena fatua
Test: Phytotoxicity against Avena fatua assessed as inhibition of shoot growth as shoot length at 0.25 mM (reference value: 11.2 +/- 0.35%)
Type: functional
Settings: read-out: GI
Mark T for reported inhibition of growth at 250 µM of 6% or greater; mark F for anything smaller.

Incoming: Could you please find out whether C=C1C(=O)O[C@@H]2[C@H]1CC[C@H](C)C1=CCC(=O)[C@]12C has inhibition of growth at 250 µM that meets 6% or exceeds it?
Outgoing: T

Incoming: Is reported inhibition of growth at 250 µM greater than or equal to 6% here: C=C1C(=O)O[C@@H]2[C@H]1CC[C@H](C)[C@@]1(O)C=CC(=O)[C@@]21C
Outgoing: T

Incoming: Entry C=C1C(=O)O[C@@H]2[C@H]1CC[C@H](C)[C@@H]1CCC(=O)[C@@]21C : is its inhibition of growth at 250 µM no less than 6%?
Outgoing: F

Incoming: Decide: inhibition of growth at 250 µM of C=C(C(=O)O)[C@@H]1CC[C@H](C)[C@@H]2CCC(=O)[C@@]2(C)C1 >= 6%?
Outgoing: T

Incoming: Threshold query (inhibition of growth at 250 µM >= 6%) on C=C1C(=O)O[C@@H]2[C@H]1CC[C@H](C)[C@@H]1C=CC(=O)[C@@]21C
Outgoing: T
